The molecules listed here are annotated with their composite z-score.
target: Torsin-1A (Homo sapiens) (UniProt O14656); assay: torsin A binders from cell lysate, primary screen, small-molecule microarray, wild-type, 635/667 nm (AID 1149); conditions: COS7 hTOR1A-WT lysate, 635 nm fluorescence, higher = more signal
Sequence (O14656 whole entry, looked up): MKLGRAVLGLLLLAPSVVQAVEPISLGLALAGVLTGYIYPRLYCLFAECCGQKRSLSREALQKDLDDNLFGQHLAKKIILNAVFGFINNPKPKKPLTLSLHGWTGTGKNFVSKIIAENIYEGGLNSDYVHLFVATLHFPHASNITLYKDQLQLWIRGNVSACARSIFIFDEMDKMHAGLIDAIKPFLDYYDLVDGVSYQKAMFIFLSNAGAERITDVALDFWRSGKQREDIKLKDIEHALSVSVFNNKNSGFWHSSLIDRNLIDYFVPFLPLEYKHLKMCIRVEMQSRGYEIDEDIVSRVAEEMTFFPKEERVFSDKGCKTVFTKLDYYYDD

{"Chemical String": "O=C1[C@H]2[C@H]3[C@H](O)[C@H](O)CC(=NOCc4ccccc4)[C@H]3CC[C@H]2C(=O)N1c1ccc(F)cc1F", "Experimental System": "Torsin-1A (Homo sapiens) (UniProt O14656)", "composite z-score": -0.0184}
{"Chemical String": "CC(C)CN1CCc2nc(-c3ccccc3)c3c(c2CC1)CO[C@@H](C)C3", "Experimental System": "Torsin-1A (Homo sapiens) (UniProt O14656)", "composite z-score": 0.531}
{"Chemical String": "C=CC[C@@H]1C=C[C@H](ON=C[C@@H](OC)[C@H](C)C=CCC(=O)OC)[C@@H](CO)O1", "Experimental System": "Torsin-1A (Homo sapiens) (UniProt O14656)", "composite z-score": 0.434}
{"Chemical String": "COCCCNC(=O)[C@@]1(CCS(=O)(=O)c2ccccc2)N=C(c2ccc(OCCCO)cc2)O[C@H]1c1ccccc1", "Experimental System": "Torsin-1A (Homo sapiens) (UniProt O14656)", "composite z-score": 1.45}
{"Chemical String": "CO[C@H]([C@@H](C)[C@H](OC)c1ccccc1)[C@H](C)[C@@H](OC)[C@H](C)C(C)=O", "Experimental System": "Torsin-1A (Homo sapiens) (UniProt O14656)", "composite z-score": -0.225}
{"Chemical String": "CC(C)(C)OC(=O)CC[C@]1(C(=O)NCc2ccccc2)N=C(c2ccc(OCCCO)cc2)O[C@H]1c1ccccc1", "Experimental System": "Torsin-1A (Homo sapiens) (UniProt O14656)", "composite z-score": 0.712}
{"Chemical String": "CCN1C(=O)[C@H]2[C@H]3[C@H](O)[C@H](O)CC(=NOCc4ccccc4)[C@H]3CC[C@H]2C1=O", "Experimental System": "Torsin-1A (Homo sapiens) (UniProt O14656)", "composite z-score": 0.171}
{"Chemical String": "COC(=O)CC=C[C@@H](C)[C@H](OC)c1ccccc1Br", "Experimental System": "Torsin-1A (Homo sapiens) (UniProt O14656)", "composite z-score": 0.258}

---

The compounds listed here are annotated with their z-score.
experiment: E. coli acrAB mutant growth effects, primary screen, E. coli filamentation inducers, strain DRC39, OD650, 48 h (AID 1179);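 note: screen aims at cell division blockers that make cells filament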; details: E. coli DRC39 delta-acrAB growth, higher = more signal, called active from +8 up or from −8 down

{"Compound": "CCOC(=O)CCN1C(=O)[C@H]2[C@H]3[C@H](O)[C@H](O)CC(=NOC[C@@H](O)COCc4ccco4)[C@@H]3CC[C@H]2C1=O", "z-score": 0.324}
{"Compound": "CCN1C(=O)[C@H]2[C@H]3[C@H](O)[C@H](O)CC(=NOC[C@@H](C)[C@H](OCc4ccccc4)C(C)C)[C@@H]3CC[C@H]2C1=O", "z-score": 0.992}
{"Compound": "CCCC[C@H]1OB(O)C[C@H]2C1=C(C)C[C@H]1C(=O)N(C)C(=O)[C@H]12", "z-score": 0.499}
{"Compound": "CC(C)(C)N1CC=CC23O[C@@H]4C=CCCOC(=O)C4[C@H]2C(=O)N(CCCCCO)[C@@H]3C1=O (stereo not given in full)", "z-score": 0.762}
{"Compound": "COc1ccccc1CN1C(=O)c2ccccc2[C@@H](C(=O)NCC(F)(F)F)[C@@H]1c1ccc(CO)cc1", "z-score": 1.69}
{"Compound": "CC(C)[C@@H](OCc1ccccc1)[C@H](C)C=NOC[C@@H](C)[C@H](OCc1ccccc1)C(C)C", "z-score": 1.09}
{"Compound": "C=CC[C@@H]1C=C[C@H](ON=Cc2ccc(C(=O)N3[C@H](c4ccc(C)cc4)[C@@H](C)CC[C@H]3C(=O)OC)cc2)[C@@H](CO)O1", "z-score": 0.226}
{"Compound": "COCCOC(=O)N1C(=O)[C@@]2(c3ccccc31)[C@H](C(N)=O)[C@H]1C(=O)O[C@H](c3ccccc3)[C@H](c3ccccc3)N1[C@@H]2c1ccccc1OCCO", "z-score": -0.158}
{"Compound": "CN1C(=O)[C@@]2(CCC(=O)OC(C)(C)C)N=C(c3ccc(OCCCO)cc3)O[C@H]2c2ccccc21", "z-score": 0.767}
{"Compound": "COC(=O)[C@]1(CO)N=C(c2ccc(OCCCO)cc2)O[C@@H]1c1ccccc1N=[N+]=[N-]", "z-score": 0.57}
{"Compound": "CC(CCN1CCc2nc(-c3ccccc3)c(-c3ccccc3)cc2C1)=NOC[C@@H](C)[C@H](OCc1ccccc1)C(C)C", "z-score": -0.936}
{"Compound": "COCCNC(=O)OCC1CCCC2(CC(OC(=O)NCCc3ccc(F)cc3)CC(CCC(=O)N[C@@H](C)C(=O)OC)O2)O1 (stereo not given in full)", "z-score": 1.16}
{"Compound": "CC(C)CON=C1C[C@@H](O)[C@@H](O)[C@@H]2[C@@H]3C(=O)N([C@@H](C)c4ccccc4)C(=O)[C@@H]3CC[C@H]12", "z-score": 0.675}
{"Compound": "CCOC(=O)[C@H](Cc1ccccc1)NC(=O)CCC1CC(OC(=O)NCc2ccc3c(c2)OCO3)CC2(CCCC(COC(=O)NCC(c3ccccc3)c3ccccc3)O2)O1 (stereo not given in full)", "z-score": 0.381}
{"Compound": "CC(C)=NOCc1ccc(-c2cc(-c3ccccc3)no2)cc1", "z-score": 0.387}

Reference for the values: PubChem BioAssay
